Values were extracted from patent US20220046923A1.

- System: Digitaria sanguinalis (DIGSA)
- PROCEDURE_TEXT: Post-emergence efficacy, glasshouse spray test
- Assay type: in vivo
- CONDITION_NOTES: Digitaria sanguinalis, post-emergence, 312 h; application rate 500 g/Ha; evaluated after 13 days; read-out: Control of weed species DIGSA after post-emergence application (100=total damage to plant; 0=no damage to plant)
Would you mind telling me the reported pest or weed control at 500 g/ha of each entry?
Give bare numbers, in %.

In the examples that follow, each entry is paired with its recorded pest or weed control at 500 g/ha.
INSERT INTO measurements (compound, tgt, value_kind, unit_symbol, value) VALUES
  ('CCOP(=O)(O)CC[n+]1ccc2ccccc2n1', 'Digitaria sanguinalis (DIGSA)', 'pest or weed control at 500 g/ha', '%', 60),
  ('CC(CC(=O)O)[n+]1ccc2ccccc2n1 (stereo not drawn) [Compound A115, 2,2,2-trifluoroacetate]', 'Digitaria sanguinalis (DIGSA)', 'pest or weed control at 500 g/ha', '%', 60);

Any idea what pest or weed control at 500 g/ha came out for `CC(=O)Nc1ccc2cc[n+](CCS(=O)(=O)[O-])nc2c1` on Digitaria sanguinalis (DIGSA)?
60
